Hello, the source for this data is patent US20260209316A1, in case you need it.

target-or-test-system: T1, full-length Sudan GP (GPFL) (Sudan virus (SUDV), UniProt Q7T9D9 33-650)
T1 construct: also called Sudan GPFL; GP(S)FL
T1 sequence: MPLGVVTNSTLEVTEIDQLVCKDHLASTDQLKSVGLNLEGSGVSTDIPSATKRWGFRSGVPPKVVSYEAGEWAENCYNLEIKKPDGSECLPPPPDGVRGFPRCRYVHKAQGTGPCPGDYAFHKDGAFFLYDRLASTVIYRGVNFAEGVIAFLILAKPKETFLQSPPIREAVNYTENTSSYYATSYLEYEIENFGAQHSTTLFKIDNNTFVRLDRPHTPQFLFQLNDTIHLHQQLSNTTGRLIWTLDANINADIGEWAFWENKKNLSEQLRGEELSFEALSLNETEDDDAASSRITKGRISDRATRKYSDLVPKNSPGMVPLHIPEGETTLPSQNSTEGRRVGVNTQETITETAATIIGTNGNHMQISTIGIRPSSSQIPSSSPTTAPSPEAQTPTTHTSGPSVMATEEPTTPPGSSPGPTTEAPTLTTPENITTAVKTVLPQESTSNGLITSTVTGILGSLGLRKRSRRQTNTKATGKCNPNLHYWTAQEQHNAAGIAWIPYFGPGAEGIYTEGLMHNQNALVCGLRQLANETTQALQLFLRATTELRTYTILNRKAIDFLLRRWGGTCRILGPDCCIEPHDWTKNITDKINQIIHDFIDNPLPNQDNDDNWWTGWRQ
measurement-protocol: BLI, Fab, pH 7.4
Recorded kon by entry
The reply should be a number in M⁻¹ s⁻¹, with the unit left off.

Completed entries (count: 5):
binder	measured-property	value-units	observed
Fab generated from 294S (Fab, V domains shown, also called 294S Fab) VH: QVQLQESGPGLVKPSQTLSLTCTVSGGSISSGGYHWSWIRQHPGKGLEWIGNIYYNGRTYYNPSLKSRVTISVDTSENEFSLKLSSVTAADTAVYYCARDRRRPRIGHDYGMDVWGQGTKVIVSS VL: DIQMTQSPSSLSASVGDRVTISCRASQSISNFLNWYQQKPGQAPKLLIYTASNLQSGVPSRFSGSGSGTDFTLTISSLQPEDFATYYCQQIYNTGMYSFGQGTKLEIK	kon	M⁻¹ s⁻¹	314000
Fab generated from 233S (Fab, V domains shown) VH: EVQLVESGGGLGQPGGSLRLSCAASGFKFKIFGMNWVRQAPGKGLEWVSYISSRSSIIYYADSVKGRFTISRDDATNSLFLQMNSLRDEDTAMYYCVRDYNLIDFVWGSLFDYWGQGILVTVSS VL: AIRMTQSPSSLSASTGDSVTITCRASQNIASYLAWYQQIPGKAPKLLIYVASTLQSGVPSRFSGSGSGTDFTLTISSLQSEDFATYYCQQYYRYPPTFGQGTKVEIK	kon	M⁻¹ s⁻¹	72100
Fab generated from 523S (Fab, V domains shown, also called 523S Fab) VH: QVQLVQSGAELKKPGASVKVSCKASGYTFSDHYVHWVRQAPGQGLEWMGRINPNSGGTNYAQRFLGRVTMTRDASISTAYLDLSSLRSDDTAVYYCARSSSSWSGHYYYYMDVWGKGTTVTVSS VL: QSVLTQPPSVSAAPGQRVTISCSGSTSNIASNFVSWYQQLPGTAPKLLIYDNHKRPSGIPDRFSGSKSGTSATLGITGLQTGDEADYYCGTWDSSLSAGVFGGGTKVTVL	kon	M⁻¹ s⁻¹	91900
Fab generated from 573S (Fab, V domains shown, also called 573S Fab) VH: EVQLVESGGGLVKPGGSLRLSCAASGFTFSSYTMNWVRQAPGKGLEWVSCIRSSSSDKYYADSVKGRFTISRDNTKNSLYLQMNSLRADDTAVYYCARDLGGANNRYYFDYGMDVWGQGTTVTVSS VL: EIVMTQSPATLSVSPGGRATLSCRASQSVYTNLAWYQQKPGQAPRLLIYDASTRATGIPARFSGSGSGTEFTLTISSLQCEDFAVYYCQHYNNWPLYTFGQGTKLEIK	kon	M⁻¹ s⁻¹	10500
Fab generated from 541S (Fab, V domains shown, also called 541S Fab) VH: QVQLVQSGAEVKKPGASVKVSCKASGYTFTNYAITWVRQAPGQGLEWMGWISAFNGQINYAQKFQGRVAMTTDTSTSTAYMELRSLRSDDTAVYYCARAPPMWFSGAKFDYWGQGTLVTVSS VL: QSVLTQPPSVSGTPGQRVTISCSGSSSNIGSNTVNWYQQLPGTAPKLLIYSNDQRPSGVPDRFSGSKSGTSASLAISGLRSEDEADYYCAAWDETLRRVFGGGTRLTVL	kon	M⁻¹ s⁻¹	12200

The binder listed as Fab generated from 503S (Fab, V domains shown, also called 503S Fab) VH: QVQLVQSGAEVKKPGASVRVSCKASGYTFTSYYMHWVRQAPGQGLEWMGQINPSGGTTRYERKFQGRITVTRDTSTSTVYLELSSLRSEDTASYFCACLRDKVTYYDLWSGVDSVWGQGTLVTVSS VL: DIQMTQSPSSLSASVGDRVTITCRASQDISTWLAWYQQKPEKAPKSLIYAASTLETGVPSRFSGSGSGTDFTLTISSLQPEDFATYYCEQYNGFPRTFGQGTKLDIK has a reported kon of 56800

The binder listed as Fab generated from 241S (Fab, V domains shown) VH: QVQLVQSGSELKKPGASVKVSCKASGYTFTSYTVNWVRQAPGQGLEWMGWINTNTGNPTYAQGFTGRFVFSSDTSVSTAYLQISDLKAEDTAMYYCARHVAYDLWSGHTVTFDHWGQGTLVTVSS VL: QSALTQPPSASGSPGQSVTISCTGTSSDVGAYNYVSWYQQHPGKAPKLIIYEVTKRPSGVPDRFSGSKSGNTASLTVSGLQAEDEADYYCSSKAGGKTYVFGTGTKVTVL has a reported kon of 127000

The binder listed as Fab generated from 354S (Fab, V domains shown, also called 354S Fab) VH: QVQLVQSGAEVKKPGASVKVSCKASGYSFASYYIHWVRQAPGQGLEWMGIINPSGGTTSYAQKFQGRVTMTRDTSTSTVYMELSSLGSEDTAVYYCARIVDRVTIYLNGVDNYWGQGTLVTVSS VL: EIVMTQSPATLSVSPGERVTLSCRASQSVSSNLAWFQQTPGQAPRLLIYGASTRASGVPARFSGSGSGTEFTLTISSLQSEDFAVYYCLQYNNWPPGWKYGFGQGTKLEIK has a reported kon of 85600
